system: cysteines in MDA-MB-231 and Ramos cells (Homo sapiens)
assay_explanation: Competitive isoTOP-ABPP in situ (fragment-treated cells)
Format: cell-based
experimental_parameters: 200 μM, insitu, 231
parameter: isoTOP-ABPP ratio P13667_C206
One number for each entry.

Sample records with isoTOP-ABPP ratio P13667_C206:
1) Cc1ccc(C=C(C#N)C(=O)NCCN2CCOCC2)cc1 [compound 41] ... 1.0
2) O=C(CCl)NC(=O)NC12CC3CC(CC(C3)C1)C2 [compound 12] ... 16.6
3) O=C(CCl)NC12CC3CC(CC(C3)C1)C2 [compound 21] ... 0.8
4) CC(C)CCOCCNC(=O)CCl [compound 27] ... 1.0
5) O=C(CCl)N1CCN(S(=O)(=O)c2ccccc2F)CC1 [compound 10] ... 3.8
6) COc1ccccc1OCCNC(=O)CCl [compound 28] ... 1.3

Hi, could you look up isoTOP-ABPP ratio P13667_C206 for each item in my list?
1. O=C(CCl)NCCc1c[nH]c2ccccc12 [compound 13]
2. CC1CCc2ccccc2N1C(=O)CCl (centres unmarked) [compound 45]
3. C=CC(=O)N(Cc1cccnc1)c1cc(C(F)(F)F)cc(C(F)(F)F)c1 [compound 31]

Ans.
1.1
1.9
0.8

Hi, could you look up isoTOP-ABPP ratio P13667_C206 for each item in my list?
1. O=C(CCl)Nc1cccc2ncccc12 [compound 51]
2. C=CC(=O)Nc1cc(F)c(N2CCN(C(=O)OC(C)(C)C)CC2)c(F)c1 [compound 38]

Ans.
1: 5.3; 2: 0.9

###

Kindly supply the reported isoTOP-ABPP ratio Q9NQR4_C153 values for the records listed here.
system: cysteines in MDA-MB-231 and Ramos cells (Homo sapiens, UniProt Q9NQR4)
Sequence (Q9NQR4 whole entry, the tested form may be a part): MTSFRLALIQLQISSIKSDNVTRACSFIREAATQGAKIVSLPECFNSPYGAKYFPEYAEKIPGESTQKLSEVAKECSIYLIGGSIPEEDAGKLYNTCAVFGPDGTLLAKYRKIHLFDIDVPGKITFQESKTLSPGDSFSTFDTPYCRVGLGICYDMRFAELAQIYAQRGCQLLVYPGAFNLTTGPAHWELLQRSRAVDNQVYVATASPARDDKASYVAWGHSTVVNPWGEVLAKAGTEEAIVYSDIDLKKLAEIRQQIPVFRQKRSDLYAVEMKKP
assay_explanation: Competitive isoTOP-ABPP in situ (fragment-treated cells)
Format: cell-based
experimental_parameters: 200 μM, insitu, 231
Give bare numbers.

1) O=C(CCl)NC(=O)NC12CC3CC(CC(C3)C1)C2 [compound 12] ... 0.9
2) O=C(CCl)N1CCN(S(=O)(=O)c2ccccc2F)CC1 [compound 10] ... 20.0
3) O=C(CCl)Nc1cccc2ncccc12 [compound 51] ... 0.6

Hi, could you look up isoTOP-ABPP ratio Q9NQR4_C153 for each item in my list?
1. Cc1ccc(C=C(C#N)C(=O)NCCN2CCOCC2)cc1 [compound 41]
2. O=C(CCl)NC12CC3CC(CC(C3)C1)C2 [compound 21]

Ans.
1. 0.7
2. 0.9

###

system: GSTP1 C48 (P09211) (Homo sapiens, UniProt P09211)
Sequence (P09211 whole entry): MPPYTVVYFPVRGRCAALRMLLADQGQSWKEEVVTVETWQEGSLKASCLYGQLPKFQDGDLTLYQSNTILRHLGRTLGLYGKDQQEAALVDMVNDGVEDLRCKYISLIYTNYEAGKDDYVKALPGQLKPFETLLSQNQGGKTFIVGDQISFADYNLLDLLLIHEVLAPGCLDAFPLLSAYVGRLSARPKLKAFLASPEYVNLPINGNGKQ
assay_explanation: Competitive isoTOP-ABPP, cell lysates
Format: binding
experimental_parameters: 500 μm, in-vitro_ramos_231
Method: TEV digests were pressure loaded onto a 250 μm (inner diameter) fused silica capillary column packed with C18 resin (Aqua 5 μm, Phenomenex). The samples were analyzed by multidimensional liquid chromatography tandem mass spectrometry (MudPIT), using an LTQ-Velos Orbitrap mass spectrometer (Thermo Scientific) coupled to an Agilent 1200-series quaternary pump. […]
parameter: isoTOP-ABPP reactivity ratio, P09211_C48

1) C=CC(=O)N(Cc1cccnc1)c1cc(C(F)(F)F)cc(C(F)(F)F)c1 [compound 31] ... 2.0
2) O=C(CCl)Nc1ccccc1C1CCCCCC1 [compound 35] ... 0.7
3) O=C(CCl)N(Cc1ccc(F)cc1)C12CC3CC(CC(C3)C1)C2 [compound 34] ... 0.8
4) Cc1ccc(C=C(C#N)C(=O)NCCN2CCOCC2)cc1 [compound 41] ... 1.3
5) COC(=O)C1Cc2ccccc2CN1C(=O)CCl (stereo not drawn) [compound 39] ... 2.0

Hi, could you look up isoTOP-ABPP reactivity ratio, P09211_C48 for each item in my list?
1. C=CC(=O)Nc1cc(F)c(N2CCN(C(=O)OC(C)(C)C)CC2)c(F)c1 [compound 38]
2. CC(C)(C)c1cc(NC(=O)CCl)on1 [compound 32]
3. C=CC(=O)Nc1cc(C)c(Br)cc1C [compound 40]

Ans.
1.9
1.9
1.6

Qu. Requested field: isoTOP-ABPP reactivity ratio, P09211_C48. Item: O=C(CCl)Nc1cc(C(=O)O)cc(C(F)(F)F)c1 [compound 36]
Ans. 1.6

###

system: cysteines in MDA-MB-231 and Ramos cells (Homo sapiens, UniProt Q9ULW0)
Sequence (Q9ULW0 whole entry, the tested form may be a part): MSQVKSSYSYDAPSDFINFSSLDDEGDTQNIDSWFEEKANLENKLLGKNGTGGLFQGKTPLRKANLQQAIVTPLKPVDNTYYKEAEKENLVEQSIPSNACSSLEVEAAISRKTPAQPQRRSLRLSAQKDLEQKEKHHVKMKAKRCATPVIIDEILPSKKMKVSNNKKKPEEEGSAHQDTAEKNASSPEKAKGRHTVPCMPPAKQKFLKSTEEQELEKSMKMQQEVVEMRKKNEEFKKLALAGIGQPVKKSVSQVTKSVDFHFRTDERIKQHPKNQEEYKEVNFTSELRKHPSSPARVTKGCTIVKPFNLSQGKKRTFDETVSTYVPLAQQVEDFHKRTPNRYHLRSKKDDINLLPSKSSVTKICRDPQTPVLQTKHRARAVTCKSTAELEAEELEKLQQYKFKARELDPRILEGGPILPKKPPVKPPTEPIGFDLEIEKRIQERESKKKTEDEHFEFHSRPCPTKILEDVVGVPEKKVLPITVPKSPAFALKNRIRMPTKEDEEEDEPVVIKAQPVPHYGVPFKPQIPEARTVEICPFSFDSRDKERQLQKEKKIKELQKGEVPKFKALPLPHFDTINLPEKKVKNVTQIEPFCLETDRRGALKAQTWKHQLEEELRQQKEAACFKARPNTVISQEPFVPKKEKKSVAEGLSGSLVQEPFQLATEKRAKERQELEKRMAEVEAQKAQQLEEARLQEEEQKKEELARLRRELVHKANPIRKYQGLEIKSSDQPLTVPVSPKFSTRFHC
assay_explanation: Competitive isoTOP-ABPP in situ (fragment-treated cells)
Assay type: cell-based
experimental_parameters: 200 μM, insitu, 231
parameter: isoTOP-ABPP ratio Q9ULW0_C536
Numbers only.

Sample records with isoTOP-ABPP ratio Q9ULW0_C536:
1) O=C(CCl)N1CCN(S(=O)(=O)c2ccccc2F)CC1 [compound 10] ... 17.6
2) O=C(CCl)NC12CC3CC(CC(C3)C1)C2 [compound 21] ... 0.9
3) CC1CCc2ccccc2N1C(=O)CCl (stereo not shown) [compound 45] ... 20.0

Now consider the entry below.
Qu. Requested field: isoTOP-ABPP ratio Q9ULW0_C536. Item: O=C(CCl)NCCc1c[nH]c2ccccc12 [compound 13]
Ans. 1.5

###

system: CASP2 C370 (P42575) (Homo sapiens, UniProt P42575)
Sequence (P42575 1-452): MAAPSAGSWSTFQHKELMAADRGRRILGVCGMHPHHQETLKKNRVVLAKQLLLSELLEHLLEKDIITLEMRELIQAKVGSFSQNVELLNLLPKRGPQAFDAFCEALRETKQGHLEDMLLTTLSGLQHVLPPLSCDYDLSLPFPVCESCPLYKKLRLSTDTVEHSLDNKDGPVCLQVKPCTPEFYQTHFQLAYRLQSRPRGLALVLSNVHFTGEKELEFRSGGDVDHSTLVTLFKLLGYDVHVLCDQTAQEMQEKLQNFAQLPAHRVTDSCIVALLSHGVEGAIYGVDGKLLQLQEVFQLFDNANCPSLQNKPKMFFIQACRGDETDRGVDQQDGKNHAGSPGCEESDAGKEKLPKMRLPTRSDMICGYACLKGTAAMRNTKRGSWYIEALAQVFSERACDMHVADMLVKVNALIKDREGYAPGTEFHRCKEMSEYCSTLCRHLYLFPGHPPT
assay_explanation: Competitive isoTOP-ABPP, cell lysates
Type: binding
experimental_parameters: 500 μm, in-vitro_ramos
Method: TEV digests were pressure loaded onto a 250 μm (inner diameter) fused silica capillary column packed with C18 resin (Aqua 5 μm, Phenomenex). The samples were analyzed by multidimensional liquid chromatography tandem mass spectrometry (MudPIT), using an LTQ-Velos Orbitrap mass spectrometer (Thermo Scientific) coupled to an Agilent 1200-series quaternary pump. […]
Kindly supply the reported isoTOP-ABPP reactivity ratio, P42575_C370 values for the records listed here.
One number for each entry.

Sample records with isoTOP-ABPP reactivity ratio, P42575_C370:
1) C=CC(=O)Nc1cc(C)c(Br)cc1C ... 2.7
2) Cc1ccc(C=C(C#N)C(=O)NCCN2CCOCC2)cc1 ... 1.4
3) C=CC(=O)N1CCC(c2noc3ccc(F)cc23)CC1 ... 0.7

Now consider the entry below.
Qu. Please provide the recorded isoTOP-ABPP reactivity ratio, P42575_C370 for `CCN(CC)c1ccc(S(N)(=O)=O)cc1NC(=O)CCl` , tested on CASP2 C370 (P42575) (Homo sapiens, UniProt P42575).
Ans. 4.1

###

Kindly supply the reported isoTOP-ABPP ratio, P63244_C182 values for the records listed here.
system: GNB2L1 C182 (P63244) (Homo sapiens)
assay_explanation: Competitive isoTOP-ABPP, cell lysates
Assay type: binding
experimental_parameters: 500 μM, invitro, ramos
Answers are plain numbers.

1) Cn1cc(S(=O)(=O)N2CCOCC2)cc1C(=O)NC(=O)CCl [compound 11] ... 1.1

Hi, could you look up isoTOP-ABPP ratio, P63244_C182 for each item in my list?
1. O=C(CCl)NCCc1c[nH]c2ccccc12 [compound 13]
2. O=C(CCl)NC(=O)NC12CC3CC(CC(C3)C1)C2 [compound 12]
3. O=C(CCl)N1CCN(S(=O)(=O)c2ccccc2F)CC1 [compound 10]
4. C=CC(=O)N(c1ccccc1)c1ccc(Br)cc1 [compound 5]

Ans.
[0.8, 0.8, 1.1, 1.4]

###

Kindly supply the reported isoTOP-ABPP ratio (reactivity profile), Q14790_C360 values for the records listed here.
system: CASP8 C360 (Q14790) (Homo sapiens)
Sequence (Q14790 whole entry): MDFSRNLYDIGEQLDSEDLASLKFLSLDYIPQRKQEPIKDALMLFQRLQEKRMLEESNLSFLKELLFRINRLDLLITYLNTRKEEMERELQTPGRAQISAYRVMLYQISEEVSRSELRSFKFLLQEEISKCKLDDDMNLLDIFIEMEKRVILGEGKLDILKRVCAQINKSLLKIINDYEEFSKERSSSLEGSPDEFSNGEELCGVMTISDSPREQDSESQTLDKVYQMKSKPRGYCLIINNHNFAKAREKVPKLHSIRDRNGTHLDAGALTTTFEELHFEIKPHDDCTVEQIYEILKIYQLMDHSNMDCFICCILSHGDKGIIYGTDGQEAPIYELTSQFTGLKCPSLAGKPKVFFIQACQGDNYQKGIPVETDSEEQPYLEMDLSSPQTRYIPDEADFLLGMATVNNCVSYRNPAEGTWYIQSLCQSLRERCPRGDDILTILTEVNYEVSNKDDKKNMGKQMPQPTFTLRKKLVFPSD
assay_explanation: Competitive isoTOP-ABPP, cell lysates
Type: binding
experimental_parameters: 500 μm in-vitro ramos
One number for each entry.

Hi, could you look up isoTOP-ABPP ratio (reactivity profile), Q14790_C360 for each item in my list?
1. O=C(CCl)NC12CC3CC(CC(C3)C1)C2 [compound 21]
2. O=C(CCl)N1CCC(C(O)(c2ccccc2)c2ccccc2)CC1 [compound 20]
3. N#C/C(=C\c1cc(C(F)(F)F)cc(C(F)(F)F)c1)C(N)=O [compound 23]
4. CC(C)CCOCCNC(=O)CCl [compound 27]
5. CC(Br)C(=O)Nc1cc(C(F)(F)F)cc(C(F)(F)F)c1 (stereo not drawn) [compound 24]
6. CCN(CC)c1ccc(S(N)(=O)=O)cc1NC(=O)CCl [compound 30]

Ans.
1: 1.9; 2: 1.5; 3: 1.4; 4: 1.2; 5: 1.4; 6: 2.0

Sourced from patent US10670605B2
